What MIC was measured for each of the following?
- Test system: S. aureus clinical isolates
- Experiment: microbe, parasite or virus in culture
- Assay type: cell-based
- Condition details: Staphylococcus aureus, MRSA / USA800 / VRSA, S. aureus IHMA 672233, VRS3b, MRSA / VRSA, USA800; read-out: MIC
Answers are plain numbers, in µg/mL.

As a guide, the following entries are already answered.
| Smi | Measured |
| --- | --- |
| CC(=O)NC[C@H]1CN(c2ccc(N3CCOCC3)c(F)c2)C(=O)O1 | 1 |
| Cc1[nH]c(C(=O)Nc2nc3c(OCc4ccccc4)cc(C(=O)O)cc3s2)c(Cl)c1Cl | 0.06 |

Task: # input compound: C[C@H]1COc2c(N3CCN(C)CC3)c(F)cc3c(=O)c(C(=O)O)cn1c23 ; wanted: its MIC
Result: 16

====

- System: S. aureus clinical isolates
- Experiment: microbe, parasite or virus in culture
- Type: cell-based
- Condition details: Staphylococcus aureus, MRSA / NRS 29 / VISA, S. aureus IHMA 1308250, NRS29, MRSA / VISA; read-out: MIC
Quantity name: MIC

Hi! Can you tell me MIC for each of these compounds?
1. Cc1onc(-c2ccccc2)c1C(=O)N[C@@H]1C(=O)N2[C@@H]1SC(C)(C)[C@@H]2C(=O)O
2. CC(=O)NC[C@H]1CN(c2ccc(N3CCOCC3)c(F)c2)C(=O)O1
3. CC[C@H]1OC(=O)[C@H](C)[C@@H](O[C@H]2C[C@@](C)(OC)[C@@H](O)[C@H](C)O2)[C@H](C)[C@@H](O[C@@H]2O[C@H](C)C[C@H](N(C)C)[C@H]2O)[C@](C)(O)C[C@@H](C)CN(C)[C@H](C)[C@@H](O)[C@]1(C)O

Result:
1: > 64 µg/mL; 2: 1 µg/mL; 3: > 32 µg/mL

====

What log10(MIC) was measured for each of the following?
- System: S. aureus clinical isolates
- Experiment: microbe, parasite or virus in culture
- Type: cell-based
- Condition details: Staphylococcus aureus, MRSA, S. aureus IHMA 1703428, MRSA / VSSA; read-out: MIC
On a log10 scale: recorded MIC, unit µg/mL.

| Compound | System under test | Measured |
| --- | --- | --- |
| CC[C@H]1OC(=O)[C@H](C)[C@@H](O[C@H]2C[C@@](C)(OC)[C@@H](O)[C@H](C)O2)[C@H](C)[C@@H](O[C@@H]2O[C@H](C)C[C@H](N(C)C)[C@H]2O)[C@](C)(O)C[C@@H](C)CN(C)[C@H](C)[C@@H](O)[C@]1(C)O [Azithromycin] | S. aureus clinical isolates | -0.30 |

Hi! Can you tell me log10(MIC) for each of these compounds?
1. Cc1[nH]c(C(=O)Nc2nc3ccc(C(=O)O)cc3s2)c(Cl)c1Cl [ULD1]
2. Cc1[nH]c(C(=O)Nc2nc3c(OCc4ccccc4)cc(C(=O)O)cc3s2)c(Cl)c1Cl [ULD2]
3. Cc1onc(-c2ccccc2)c1C(=O)N[C@@H]1C(=O)N2[C@@H]1SC(C)(C)[C@@H]2C(=O)O [Oxacillin]
4. C[C@H]1COc2c(N3CCN(C)CC3)c(F)cc3c(=O)c(C(=O)O)cn1c23 [Levofloxacin]
5. CC(=O)NC[C@H]1CN(c2ccc(N3CCOCC3)c(F)c2)C(=O)O1 [Linezolid]

Result:
1. 0.00
2. -0.30
3. 1.81
4. -0.60
5. 0.30

====

- Test system: S. aureus clinical isolates
- Experiment: microbe, parasite or virus in culture
- Format: cell-based
- Condition details: Staphylococcus aureus, MRSA, S. aureus IHMA 1766357, MRSA / VSSA; read-out: MIC
What MIC was measured for each of the following?
Give bare numbers, in µg/mL.

Hi! Can you tell me MIC for each of these molecules?
1. Cc1[nH]c(C(=O)Nc2nc3c(OCc4ccccc4)cc(C(=O)O)cc3s2)c(Cl)c1Cl
2. C[C@H]1COc2c(N3CCN(C)CC3)c(F)cc3c(=O)c(C(=O)O)cn1c23
3. Cc1[nH]c(C(=O)Nc2nc3ccc(C(=O)O)cc3s2)c(Cl)c1Cl

Result:
1: 0.12; 2: 16; 3: 0.25

====

- Test system: S. aureus clinical isolates
- Experiment: microbe, parasite or virus in culture
- Assay type: cell-based
- Condition details: Staphylococcus aureus, MRSA, S. aureus IHMA 1592776, MRSA / VSSA; read-out: MIC
What MIC was measured for each of the following?
Numbers only, in µg/mL.

As a guide, the following entries are already answered.
| Smi | System under test | MIC / µg/mL |
| --- | --- | --- |
| CC(=O)NC[C@H]1CN(c2ccc(N3CCOCC3)c(F)c2)C(=O)O1 | S. aureus clinical isolates | 2 |
| C[C@H]1COc2c(N3CCN(C)CC3)c(F)cc3c(=O)c(C(=O)O)cn1c23 | S. aureus clinical isolates | 0.25 |
| Cc1[nH]c(C(=O)Nc2nc3ccc(C(=O)O)cc3s2)c(Cl)c1Cl | S. aureus clinical isolates | 0.5 |
| Cc1[nH]c(C(=O)Nc2nc3c(OCc4ccccc4)cc(C(=O)O)cc3s2)c(Cl)c1Cl | S. aureus clinical isolates | 0.25 |

Turning to the following molecule.
Task: # input molecule: Cc1onc(-c2ccccc2)c1C(=O)N[C@@H]1C(=O)N2[C@@H]1SC(C)(C)[C@@H]2C(=O)O ; wanted: its MIC
Result: 32

====

What MIC was measured for each of the following?
- System: S. aureus
- Experiment: pH-dependent MIC determination
- Type: cell-based
- Condition details: Staphylococcus aureus; S. aureus ATCC 700699 (VISA), pH 7.3

| Smi | Quantity name | Measured |
| --- | --- | --- |
| Nc1nc(-n2cc(C(=O)O)c(=O)c3cc(F)c(N4CC(O)C4)c(Cl)c32)c(F)cc1F | MIC | 1 µg/mL |
| Cc1[nH]c(C(=O)Nc2nc3c(OCc4ccccc4)cc(C(=O)O)cc3s2)c(Cl)c1Cl | MIC | 0.02 µg/mL |
| Cc1[nH]c(C(=O)Nc2nc3ccc(C(=O)O)cc3s2)c(Cl)c1Cl | MIC | 0.04 µg/mL |

Turning to the following molecule.
Task: # input molecule: CN[C@H](CC(C)C)C(=O)N[C@H]1C(=O)N[C@@H](CC(N)=O)C(=O)N[C@H]2C(=O)N[C@H]3C(=O)N[C@H](C(=O)N[C@H](C(=O)O)c4cc(O)cc(O)c4-c4cc3ccc4O)[C@H](O)c3ccc(c(Cl)c3)Oc3cc2cc(c3O[C@@H]2O[C@H](CO)[C@@H](O)[C@H](O)[C@H]2O[C@H]2C[C@](C)(N)[C@H](O)[C@H](C)O2)Oc2ccc(cc2Cl)[C@H]1O ; wanted: its MIC
Result: 8 µg/mL

====

- System: S. aureus clinical isolates
- Experiment: microbe, parasite or virus in culture
- Format: cell-based
- Condition details: Staphylococcus aureus, MRSA, S. aureus IHMA 1666371, MRSA / VSSA; read-out: MIC
What MIC was measured for each of the following?
Give bare numbers, in µg/mL.

| Compound | MIC / µg/mL |
| --- | --- |
| CC(=O)NC[C@H]1CN(c2ccc(N3CCOCC3)c(F)c2)C(=O)O1 [Linezolid] | 0.5 |

Hi! Can you tell me MIC for each of these compounds?
1. Cc1[nH]c(C(=O)Nc2nc3ccc(C(=O)O)cc3s2)c(Cl)c1Cl [ULD1]
2. Cc1[nH]c(C(=O)Nc2nc3c(OCc4ccccc4)cc(C(=O)O)cc3s2)c(Cl)c1Cl [ULD2]
3. Cc1onc(-c2ccccc2)c1C(=O)N[C@@H]1C(=O)N2[C@@H]1SC(C)(C)[C@@H]2C(=O)O [Oxacillin]
4. CC[C@H]1OC(=O)[C@H](C)[C@@H](O[C@H]2C[C@@](C)(OC)[C@@H](O)[C@H](C)O2)[C@H](C)[C@@H](O[C@@H]2O[C@H](C)C[C@H](N(C)C)[C@H]2O)[C@](C)(O)C[C@@H](C)CN(C)[C@H](C)[C@@H](O)[C@]1(C)O [Azithromycin]

Result:
[0.5, 0.25, 16, 0.25]

====

- Test system: S. aureus clinical isolates
- Experiment: microbe, parasite or virus in culture
- Format: cell-based
- Condition details: Staphylococcus aureus, MRSA, S. aureus IHMA 1620441, MRSA / VSSA; read-out: MIC
What MIC was measured for each of the following?

As a guide, the following entries are already answered.
| Smi | MIC |
| --- | --- |
| Cc1[nH]c(C(=O)Nc2nc3c(OCc4ccccc4)cc(C(=O)O)cc3s2)c(Cl)c1Cl | 0.25 µg/mL |
| C[C@H]1COc2c(N3CCN(C)CC3)c(F)cc3c(=O)c(C(=O)O)cn1c23 | 32 µg/mL |
| Cc1[nH]c(C(=O)Nc2nc3ccc(C(=O)O)cc3s2)c(Cl)c1Cl | 0.5 µg/mL |
| CC(=O)NC[C@H]1CN(c2ccc(N3CCOCC3)c(F)c2)C(=O)O1 | 1 µg/mL |
| Cc1onc(-c2ccccc2)c1C(=O)N[C@@H]1C(=O)N2[C@@H]1SC(C)(C)[C@@H]2C(=O)O | > 64 µg/mL |

Turning to the following compound.
Task: # input compound: CC[C@H]1OC(=O)[C@H](C)[C@@H](O[C@H]2C[C@@](C)(OC)[C@@H](O)[C@H](C)O2)[C@H](C)[C@@H](O[C@@H]2O[C@H](C)C[C@H](N(C)C)[C@H]2O)[C@](C)(O)C[C@@H](C)CN(C)[C@H](C)[C@@H](O)[C@]1(C)O ; wanted: its MIC
Result: > 32 µg/mL
